pIC50: recorded values
test: Inhibition of […] (unknown origin) expressed in human KARPAS-299 cells assessed as reduction in cell growth
When answering, recall that pIC50 equals minus log10 of the concentration in mol/L, and write that number alone.

Cc1cc(Nc2cc(Nc3ccccc3S(=O)(=O)C(C)C)c3cc[nH]c3n2)c(OC(C)C)cc1C1CCN(C)CC1 : 5.14

Lab note: next compound to report on.
Answer with the recorded pIC50 of Cc1cc(Nc2nc(Nc3ccccc3S(=O)(=O)C(C)C)c3c(C)[nH]nc3n2)c(OC(C)C)cc1C1CCN(C)CC1 only.
7.59

====

assay: Inhibition of Tel fused InsR (unknown origin) expressed in mouse BaF3 cells assessed as reduction in cell proliferation incubated for 2 to 3 days by Bright-Glo luciferase assay
MEASURED_ENDPOINT: pIC50
When answering, recall that pIC50 equals minus log10 of the concentration in mol/L, and write that number alone.

Answer with the recorded pIC50 of Cc1cc(Nc2nc(Nc3ccccc3S(=O)(=O)C(C)C)c3c(C)[nH]nc3n2)c(OC(C)C)cc1C1CCN(C)CC1 [US8592432, 34] only.
6.37
